Entries and their self-cleavage
B1: LINE1-full (parent)
chain: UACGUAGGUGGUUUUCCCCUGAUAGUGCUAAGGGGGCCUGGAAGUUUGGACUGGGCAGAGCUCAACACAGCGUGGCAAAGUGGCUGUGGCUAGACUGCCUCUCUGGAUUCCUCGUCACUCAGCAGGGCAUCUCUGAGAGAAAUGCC

Variants of: B1
Assay: self-cleavage, relative activity (ratio to wild type); higher = more cleavage; in vitro, sequencing; the parent is a self-cleaving ribozyme
Respond numerically, and do not add a unit to the figure.

Sequence	self-cleavage
UACGUAGGUGGUUUUCCCCUGAUAGUGCUAAGGGGGCCUGGAAGUUUGGACUGGGCAGAGCUCAGCACAGCGUGGCAAAGUGGCUGUGGCUAGACUGCCUCUCUGGAUUCCUCAUCACUCAGCAGGGCAUCUCUGAGAGAAAUGCC [A65G G114A]	0.04
UACGUAGGCGGUUUUCCCCUGAUAGUGCUAAGGGGGCCUGGAAGUUUGGACUGGGCAGAGCUCAACACAGCGUGGCAAAGUGGCUGUGGCUAGACUGCCUCUCUGGAUUCCUCGUCACUCAGCAGGGCAUCUCUGAGAGAAAUGAC [U9C C145A]	1.3

Sample UACGUAGGUGGUUUUCCCCUGAUAGUGCUAAGGGGGCCUGGAAGUUUGGACUGGGCAGAGCUCAACACAGCGUGGCAAAGUGGCUGUGGCUAGACCGCCUCUCUGGAUUCCUCGUCACUCAGCAGGGCAUCUCUGAUAGAAAUGCC [U96C G137U] ; self-cleavage observed: 0.06

Noted for UACGUAGGUGGUUUUCCCCUGAUAGUGCUAAGGGGGCCUGGAAGUUAGGACUGGGCAGAGCUCAACACAGCGUGGCAAAGUGGCUGUGGCUAGACUGCCUCUCUGGAUACCUCGUCACUCAGCAGGGCAUCUCUGAGAGAAAUGCC [U47A U109A] : its self-cleavage reads 1.74

Lab note: UACGUAGGCGGUUUUCCCCUGAUAGUGCUAAGGGGGCCUGGAAGUUUGGACUGGGCAGAGCUCAACACAGCGUGGCAAAGUGGCUGUGGCUAGACAGCCUCUCUGGAUUCCUCGUCACUCAGCAGGGCAUCUCUGAGAGAAAUGCC [U9C U96A] gave self-cleavage of 0.15

Entry UACGUAGGUGGGUUUCCCCUGAUAGUGCUAAGGGGGCCUGGAAGUUUGGACUGGGCAGAGCUCAACACUGCGUGGCAAAGUGGCUGUGGCUAGACUGCCUCUCUGGAUUCCUCGUCACUCAGCAGGGCAUCUCUGAGAGAAAUGCC [U12G A69U] ; self-cleavage = 0.08

Lab note: measured self-cleavage of UACGUAGGUGGUUUUCCCCUGAUAGUGCUAGGGGGGCCUGGAAGUUUGGACUGGGCAGAGCUCAACACAGCGUGGCAAAGUGGCUGUGGCUAGACUGCCUCUCUGGAUUCCUCGUCGCUCAGCAGGGCAUCUCUGAGAGAAAUGCC [A31G A117G] was 1.84

# variant UACGUAGGUGGUUUUCCCCUGAUAGUGCUAAGGGGGCCUGGAAGUUUGGACUGGGCAGAGCUCAACGCAGCGUGGCAAAGUGGCUGUGGCUAGACUGCCUCACUGGAUUCCUCGUCACUCAGCAGGGCAUCUCUGAGAGAAAUGCC [A67G U102A] ; its self-cleavage = 0.99

Quick note, self-cleavage for UACGUAGGUGGUUUUCCCCUGAUAGUGCUAAGGGGGCCUGGAAGCUUGGACUGGGCAGAGCUCAACACAGCGUGGCAAAGUGGUUGUGGCUAGACUGCCUCUCUGGAUUCCUCGUCACUCAGCAGGGCAUCUCUGAGAGAAAUGCC [U45C C84U] landed at 0.04

Lab note: measured self-cleavage of UACGUAGGUGGUCUUCCCCUGAUAGUGCUAAGGGGGCCUGGAAGUUUGGACUGGGCAGAGCUCAACACAGCGUGGCAAAAUGGCUGUGGCUAGACUGCCUCUCUGGAUUCCUCGUCACUCAGCAGGGCAUCUCUGAGAGAAAUGCC [U13C G80A] was 1.48

Lab book: self-cleavage of UACGUAGGUGGUUUUCCCCUGAUAGUGCUAAGGGGGCCUGGAAGUUUGGACUGGGCAGAGCUCAACACAGCGUGGCAAAGUGGCCGUGGCUAGACUGCCUAUCUGGAUUCCUCGUCACUCAGCAGGGCAUCUCUGAGAGAAAUGCC [U85C C101A] noted as 0.12

Looking up UACGUGGGUGCUUUUCCCCUGAUAGUGCUAAGGGGGCCUGGAAGUUUGGACUGGGCAGAGCUCAACACAGCGUGGCAAAGUGGCUGUGGCUAGACUGCCUCUCUGGAUUCCUCGUCACUCAGCAGGGCAUCUCUGAGAGAAAUGCC [A6G G11C] , I see its self-cleavage listed as 0.31

Briefly, self-cleavage measured for UACGUAGGUGGUUUUCCCCUGAUAGUGCUAAGGAGGCCUGGAAGUUUGGACUGGGCAGAGCUCAAUACAGCGUGGCAAAGUGGCUGUGGCUAGACUGCCUCUCUGGAUUCCUCGUCACUCAGCAGGGCAUCUCUGAGAGAAAUGCC [G34A C66U] : 0.05

Measured self-cleavage of UGCGUAGGUGGUUUUCCCCUGAUAGUGCUAAGGGGGCCUGGAAGUUUGGACUGGGCAGAGCUCAACACAGCGUGGCAAAGUGGCUGUGGCUAGACUGCCUCUCUGGAUUCCUCGUCACUCAGCAGGGCAUCUCUGGGAGAAAUGCC [A2G A136G] : 0.82

So, UACGUAGGUGGUUUUCCCCUGAUAGUGCUAAGGGGGCUUGGAAGUUUGGACUGGGCAGAGCUCAACACAGCGUGGCAAAGUGGCUGUGGCUAGACUGCCUCUCUGGAUUCCUCGUCACUCAGCAGGGCAUCUCUGAGCGAAAUGCC [C38U A138C] ? Its self-cleavage was 1.46

// recorded self-cleavage for UACGUAGGUGGUUUUCCCCUGAUAGUGCUAAGGGGGCCUGGAAGUUUGGACCGAGCAGAGCUCAACACAGCGUGGCAAAGUGGCUGUGGCUAGACUGCCUCUCUGGAUUCCUCGUCACUCAGCAGGGCAUCUCUGAGAGAAAUGCC [U52C G54A] : 0.74

According to the records, this variant UACGUAGGUGGUUUCCCCCUGAUAGUGUUAAGGGGGCCUGGAAGUUUGGACUGGGCAGAGCUCAACACAGCGUGGCAAAGUGGCUGUGGCUAGACUGCCUCUCUGGAUUCCUCGUCACUCAGCAGGGCAUCUCUGAGAGAAAUGCC [U15C C28U] displays self-cleavage of 2.35
